Data provenance is patent US5795876A.

IC50 reference
- Test system: VCAM-1
- Procedure text: Cell surface ELISA for VCAM-1 in human umbilical vein endothelial cells (HUVEC), cytokine-induced (tumor necrosis factor-alpha)
- Type: cell-based
- Assay conditions: eight serial dilutions, basal expression subtracted
Response body: numeric value in µM, unit text excluded.

Illustrative cases are given below, each with its answer.
[
  {
    "Compound": "CC(C)(C)c1cc(OC[Si](C)(C)c2ccccc2)cc(C(C)(C)C)c1O [MDL 103,902]",
    "Assay target": "VCAM-1",
    "Data value": 11
  },
  {
    "Compound": "CC(C)(C)c1cc(SC[Si](C)(C)c2ccccc2)cc(C(C)(C)C)c1O [MDL 29,353]",
    "Assay target": "VCAM-1",
    "Data value": 19
  }
]

Kindly review the next compound as well.
[in] I would be grateful if you could share the reported IC50 for COc1ccc([Si](C)(C)COc2cc(C(C)(C)C)c(O)c(C(C)(C)C)c2)cc1 [MDL 105,074] .
[out] 12
